Tested on: UACC-257 melanoma
Assay: NCI tumour cell line growth inhibition, 48 h
Where a SMILES comes first, the peptide text is derived from it. Bridges are numbered along the chain shown (N, C = ends).
experimental readout: TGI

Solved entries:
- CC[C@@]1(O)C(=O)OCc2c1cc1n(c2=O)Cc2cc3cccc(N)c3nc2-1: > 100 µM
- Cc1cnc(-c2ccc(-c3ccc(NC(=O)Nc4cccc(C(F)(F)F)c4)cc3F)c3c2C(=O)NC3)[nH]1: > 66 µM
- O=C(/C=C/c1ccc(Cl)cc1)c1nc2ccccc2[nH]1: > 100 µM

Record `CCCc1nn(C)c(CCC(=O)N(Cc2ccccc2)Cc2ccccc2)c1CC` . Reported TGI: > 100 µM

Record CCC(C)C1NC(=O)C(CC(C)C)NC(=O)C(C(C)C)NC(=O)C2CSSCC(NC1=O)C(=O)N2 (stereo unspecified) (cyclo(CCVLI); disulfide 1-2; configuration not given here) . Reported TGI: 0.279 µM

Record `COC(=O)CCc1cc(OC)c2oc(-c3ccc(OC)c(OC)c3)c(CO)c2c1` . Reported TGI: > 100 µM

Record O=[N+]([O-])c1ccc(C2NC(=S)NC3c4cc([N+](=O)[O-])ccc4CCCC23)cc1 (stereo unspecified) . Reported TGI: > 100 µM

---

Test system: SF-268 CNS
Assay: NCI tumour cell line growth inhibition, 48 h
experimental readout: TGI

Solved entries:
* COc1cc(Cn2c3ccccc3c3cc(C)cc(OC)c32)cc2c1[nH]c1ccccc12 | > 25 µM
* CCCCCCC(O)C(=O)OC1C2C(CC1(C)C)C(O)C13OC1C(O)C1(CO1)[C@@]23C (stereo partly specified) | 53.6 µM
* O=C(Cn1c2ccc(Br)cc2c2nc3ccccc3nc21)N1CCOCC1 | > 100 µM

SF-268 CNS assay, compound `CSC(=NC(=O)c1ccccc1)SCCSC(=NC(=O)c1ccccc1)SC` , recorded TGI = > 100 µM

SF-268 CNS assay, compound C=C1C(=O)O[C@H]2[C@H]1CC/C(CNC(=O)C(C)c1ccc(CC(C)C)cc1)=C\CC[C@@]1(C)O[C@@H]21 (stereo partly specified) , recorded TGI = 3.58 µM

SF-268 CNS assay, compound `COc1ccc2[nH]cc(Cc3c[nH]c4ccc(OC)cc34)c2c1` , recorded TGI = 62.5 µM

SF-268 CNS assay, compound `COc1ccccc1-c1ccc2c(N)c(C(=O)c3ccc4c(c3)OCO4)sc2n1` , recorded TGI = 32.4 µM

---

Tested on: NCI-H460 lung
Hi! Could you answer with just one of these? active, inactive

Consider the following illustrative entries.
* O=c1oc2ccc(I)cc2c(=O)n1-c1ccc(I)cc1F | inactive
* CN1CCN(C(=O)[C@@]2(C)CC[C@]3(C)CC[C@]4(C)C(=CC[C@@H]5[C@@]6(C)CC[C@H](OC(=O)c7cccnc7)C(C)(C)[C@@H]6CC[C@]54C)[C@@H]3C2)CC1 | inactive
* COc1ccc2[nH]cc(Cc3c[nH]c4ccc(OC)cc34)c2c1 | inactive
* Oc1ccccc1/C=N\Nc1ccccc1 | inactive
* COc1cc(C(=O)c2cnc(-c3ccc4cc[nH]c4c3)[nH]2)cc(OC)c1OC | active
* CN(CCCCCCCCNc1ccnc2ccccc12)Cc1ccc(-c2ccc(-c3ccc(C#N)cc3)s2)cc1 | active
* COC1/C=C/OC2(C)Oc3c(C)c(O)c4c(O)c(c(/C=N/N(c5ccccc5)c5ccccc5)c(O)c4c3C2=O)NC(=O)C(C)=C/C=C/C(C)C(O)C(C)C(O)C(C)C(OC(C)=O)C1C (stereo not drawn) | inactive

Attention now turns to another entry.
Assay outcome for CC1OC(OC2C(O)C(OCCc3ccc(O)c(O)c3)OC(CO)C2OC(=O)/C=C/c2ccc(O)c(O)c2)C(O)C(O)C1O (stereo not drawn) : what was it?
inactive

---

System: SNB-75 CNS
Assay: NCI tumour cell line growth inhibition, 48 h
Where a SMILES comes first, the peptide text is derived from it. Bridges are numbered along the chain shown (N, C = ends).
experimental readout: TGI (µM)
Express the result in µM but write the number alone.

* O=C1c2c(c3c4ccccc4n(CCCCCCN4CCOCC4)c3c3[nH]c4ccccc4c23)C(=O)N1O | 7.57
* CCC(C)C1NC(=O)C(CC(C)C)NC(=O)C(C(C)C)NC(=O)C2CSSCC(NC1=O)C(=O)N2 (centres undefined) (cyclo(CCVLI); disulfide 1-2; configuration not given here) | 0.238
* Oc1c(Cl)c(Cl)c(O)c(-c2cnc(-c3ncc(-c4c(O)c(Cl)c(Cl)c(O)c4Cl)s3)s2)c1Cl | 71.7

Next:
SNB-75 CNS assay, molecule CCCCCCCCC1C(C)c2c([nH]c3ccccc23)C2C(=O)N(c3ccccc3)C(=O)C21 (centres undefined) , recorded TGI = 39.9

---

Tested on: NCI-H23 lung
Experiment: NCI tumour cell line growth inhibition, 48 h
Below, each entry is listed with its recorded GI50.

NCI-H23 lung assay, molecule `Cn1cc(-c2csc(-c3cn(CCCN4CCCCC4)c4ccc(Br)cc34)n2)c2cccnc21` , recorded GI50 = 1.79 µM

NCI-H23 lung assay, molecule O=C(CS(=O)c1nc2ccccc2nc1-c1ccccc1)Nc1ccc(Cl)cc1 (stereo not drawn) , recorded GI50 = 30.7 µM

NCI-H23 lung assay, molecule N#Cc1ccc(O)c(C2=NCC(c3ccc(-c4ccccc4)cc3)O2)c1 (stereo not drawn) , recorded GI50 = 0.703 µM

NCI-H23 lung assay, molecule `O=C(N/N=C/c1cc(Cl)cc(Cl)c1[O-])c1ccccc1O.O=C(N/N=C/c1cc(Cl)cc(Cl)c1[O-])c1ccccc1O.[Fe+2]` , recorded GI50 = 6 µM

NCI-H23 lung assay, molecule COC1/C=C/OC2(C)Oc3c(C)c(O)c4c(O)c(c(/C=N/N(c5ccccc5)c5ccccc5)c(O)c4c3C2=O)NC(=O)C(C)=C/C=C/C(C)C(O)C(C)C(O)C(C)C(OC(C)=O)C1C (stereo not drawn) , recorded GI50 = 1.96 µM

NCI-H23 lung assay, molecule COc1ccc(-c2nsc3c2NC(=O)CC3c2cccc(F)c2)cc1 (stereo not drawn) , recorded GI50 = 5.02 µM

NCI-H23 lung assay, molecule `Cc1cc2oc(=O)cc(OC/C=C3/CCC(=O)O3)c2cc1C` , recorded GI50 = 8.04 µM

NCI-H23 lung assay, molecule `Cn1c2ccccc2c2c(=O)n(CCCC(=O)NCCc3cnc[nH]3)c3c(-c4ccccc4)nnn3c21` , recorded GI50 = 13.3 µM

---

Test system: NCI-H460 lung
Assay: NCI tumour cell line growth inhibition, 48 h
experimental readout: TGI

Solved entries:
- O=C(/C=C/c1ccc(O)c(O)c1)c1ccc(O)cc1O: 36.3 µM
- Cc1cnc2c(c1)C(=O)N(c1ccc(Br)cc1)S2(=O)=O: > 100 µM

Record `CC(=O)OC(C)(C)C[N+](=O)[O-]` . Reported TGI: > 100 µM

Record CC(C)(CN1CCCCC1)C(=O)CC(SCCS(=O)(=O)O)c1ccccc1 (stereo unspecified) . Reported TGI: > 100 µM

Record `O=c1[nH][nH]c(=O)c2c(O)c(-c3ccccc3)ncc12` . Reported TGI: 634 µM

Record `CCOC(=O)CN1C(=O)c2c(NC(=O)C(=O)O)cccc2S1(=O)=O` . Reported TGI: > 100 µM

---

System: MOLT-4 leukemia
Assay: NCI tumour cell line growth inhibition, 48 h
experimental readout: TGI (µM)
Express the result in µM but write the number alone.

Solved entries:
* CCCCCCCCCCCCCP(=O)(OC)OC | 36.5
* O=c1[nH]c(Br)nc2n[nH]nc12 | 44.3
* CC(=O)O[C@H]1C(=O)[C@@]2(C)[C@H]([C@H](OC(=O)c3ccccc3)[C@]3(O)C[C@H](OC(=O)[C@H](O)[C@@H](NC(=O)OC(C)(C)C)c4ccco4)C(C)=C1C3(C)C)[C@]1(OC(C)=O)CO[C@@H]1C[C@@H]2O | 25.9
* O=c1oc2ccc(I)cc2c(=O)n1-c1ccc(I)cc1F | 4.94

Record `O=C1/C=C/[C@@H](O)[C@@H]2C[C@@H](O)C[C@H]2/C=C/CCC[C@H](CCc2ccc(NC(=S)Nc3ccc4c(c3)C(=O)OC43c4ccc(O)cc4Oc4cc(O)ccc43)cc2)O1` . Reported TGI: 4.07

Record `CCCCNP1(NCCCC)=NP(NCCCC)(NCCCC)=NP(NCCCC)(NCCCC)=NP(NCCCC)(NCCCC)=N1` . Reported TGI: 3.99

Record `COc1ccc2nc3c([N+](=O)[O-])ccc4c3c(c2c1)N=CN4CCN(C)C` . Reported TGI: 6.73

Record CCCCCCCCC1C(C)c2c([nH]c3ccccc23)C2C(=O)N(c3ccccc3)C(=O)C21 (centres undefined) . Reported TGI: 7.18

---

System: A498 renal
Assay: NCI tumour cell line growth inhibition, 48 h
Below, each entry is listed with its recorded TGI.
Express the result in µM but write the number alone.

Solved entries:
- CC(c1ccccc1)n1c2ccccc2c2c(N)ncnc21 (stereo not given): 30.3
- COc1cc(C(=O)c2cnc(-c3ccc4cc[nH]c4c3)[nH]2)cc(OC)c1OC: 0.0788
- C[C@H]1[C@H](C)CC[C@]2(C(=O)O)CCC3(COC(=O)/C=C/c4ccc(O)cc4)C(=CCC4[C@@]5(C)CC[C@H](O)C(C)(C)C5CC[C@]43C)[C@H]12 (stereo not given in full): 15.3

A498 renal assay, compound `CCN(CC)CCNc1ccc(N=Nc2cnc3ccccc3c2)c2ccccc12` , recorded TGI = 3.05

A498 renal assay, compound CCOP(=O)(OCC)C(NC(c1ccccc1)c1ccccc1)c1ccsc1 (stereo not given) , recorded TGI = 49.6

A498 renal assay, compound O=C(CS(=O)c1nc2ccccc2nc1-c1ccccc1)Nc1ccc(Cl)cc1 (stereo not given) , recorded TGI = 43
